- TEST_NAME: qHTS of pediatric cancer cell lines to identify multiple opportunities for drug repurposing: Primary screen for NB1643 cells (AID 1347099); note: nearly all actives have a fitted effect of over 50% in size
- CONDITIONS: NB1643 neuroblastoma viability, CellTiter-Glo luminescence, 48 h; series mostly up to 46 µM
- Experimental: Drug repurposing or repositioning has been offered as a strategy for drug development in oncology programs. This approach has special potential for childhood cancers and other rare or orphan diseases, where the expected return on new drug development has been a disincentive to pharmaceuticals. […] We employed a titration-based paradigm (quantitative high-throughput screening or qHTS), where all compounds were tested at multiple concentrations for their effect on cell viability. […]
Inconclusive results are not listed. Active and inactive are the calls of the source. Calls come from the whole dose curve; as a rule, active = well fitted cell-killing curve with a large enough effect; inconclusive = small, poorly fitted or top-dose-only effect; inactive = no such curve, though single readings can be large or run the other way.
Please answer using one outcome listed in T = active, F = inactive

Record excerpt, results attached:
>  <COMPOUND>
CC(C)(C)NC[C@H](O)COc1cccc2c1CCCC2=O

>  <DISCRETE_LABEL>
F

$$$$
>  <COMPOUND>
CC(C)[N+](C)(C)CC(O)COc1cccc2ccccc12 (configuration not stated)

>  <DISCRETE_LABEL>
F

$$$$
>  <COMPOUND>
N#CCC(=O)NN

>  <DISCRETE_LABEL>
F

$$$$

Query: Give the logged outcome of this assay for the following compound: FC(F)(F)C(F)(F)C(F)(F)C(F)(F)C(F)(F)C(F)(F)C(F)(F)C(F)(F)Br
Reply: F

Query: Recorded call for NC(=S)N/N=C/c1cccnc1 ?
Reply: F

Query: // return assay outcome for CC(C)NCC(O)c1ccc2ccccc2c1 (configuration not stated)
Reply: F

Query: Outcome? CCCCCCCCCCCCOCCOCCOCCOCCOCCOCCOCCOCCOCCO
Reply: F

Query: Look up the recorded call for CN1CCC[C@@H]1CCO[C@](C)(c1ccccc1)c1ccc(Cl)cc1 in this test.
Reply: F

Query: // outcome(item) with item = COc1cc(C(=O)NCc2ccc(OCCN(C)C)cc2)cc(OC)c1OC
Reply: F
